Reported growth values are given for each entry in this list.
Test system: SN12C renal
Test: NCI-60 one-dose screen, 48 h (100 = growth as untreated, 0 = no growth, -100 = all killed)
Conditions: 10 µM
This is part of a sample that, as a whole, favours compounds with a hit. Of some 83,000 tested, about 20% had one in any assay.
measured_parameter: growth (%)

compound | measured_parameter | recorded_value
O=C1C=CC2=C3c4cc(O)c(O)cc4CC3(O)COC2=C1O (configuration not stated) | growth | 104
CCCCOC(OCCCC)c1ccccc1 | growth | 101
O=C(N/N=C/c1ccccc1O)Nc1nn[nH]n1 | growth | 100
N#CC(=Nc1cccc(F)c1)C1=C(O)c2ccccc2C1=O | growth | 82.8
CCCCCCCCOC(=O)c1ccccn1 | growth | 96.4
CCCCCCCO | growth | 99.4
CC(=Nc1ccccc1)C1=C(O)C(Cc2cccc(F)c2)NC1=O (configuration not stated) | growth | 29.7
Cc1cc(N2CCC(N3CCCC3)CC2)nc(/N=C(\N)Nc2ccc(Cl)c(Cl)c2)n1 | growth | 93.7
CC(=O)OC(C(=O)O)c1ccccc1 (configuration not stated) | growth | 101
CC1SC(N)=NC1=O (configuration not stated) | growth | 120
CN(C)c1ccc(S(=O)(=O)O)cc1 | growth | 105
c1ccc(Cc2ccccc2)cc1 | growth | 95.1
O=C(/C(=N/O)c1ccccc1)c1ccccc1 | growth | 94.6
S=c1sc2ccccc2n1CN1CCCCC1 | growth | 109
CC(=O)Nc1ccc(NC(C)=O)c2c1C(=O)c1ccccc1C2=O | growth | 86.9
CC1CCC(C(=O)O)N1 (configuration not stated) | growth | 92.7
CC(=O)CC(=O)N(C)C | growth | 97
CCOC(=O)c1ccc(NC(=S)P(=O)(c2ccccc2)c2ccccc2)cc1 | growth | 103
O=C(NCO)c1ccccc1 | growth | 105
Cc1cc2ccccc2c(O)c1C#N | growth | 95.3
NC(=O)c1ccc(N=C(N)N=C(N)N)cc1 | growth | 110
CC(=O)c1sc2c(c1OC(=O)c1ccc(Cl)cc1Cl)c(=O)n(-c1ccccc1)c(=S)n2-c1ccccc1 | growth | 13.4
O=C(CCNNC(=O)c1ccncc1)NCc1ccccc1 | growth | 97.1
CC1(C)Nc2cccc3c(N=Nc4ccc(N=Nc5ccccc5)c5ccccc45)ccc(c23)N1 | growth | 94.6
NC(N)=Nc1cc2ccccc2c2ccccc12 | growth | 80.5
Nc1ccc(C(=O)c2ccc(N)c(Br)c2)cc1Br | growth | 29.2
CCOC(=O)C(=O)C=P(c1ccccc1)(c1ccccc1)c1ccccc1 | growth | 103

* * *

System: MDA-MB-435 melanoma
Experiment: NCI-60 one-dose screen, 48 h
Conditions: 10 µM
The panel holds about 83,000 compounds, 20% with a hit somewhere; the sample as a whole holds those more often. Activity calls are given as the source filed them. How the source made its calls: active means growth percent below 10; inactive means the rest.
Possible outcomes: active, inactive

molecule | category_label
CC(=O)OC(C(=O)O)c1ccccc1 (configuration not stated) | inactive
COc1cc2c(cc1O)CC[C@@H]1C2CC[C@@]2(C)C1CC[C@@H]2O (some centres not stated) | active
Cc1ccc(C(=O)c2ccccc2)c(C)c1 | inactive
N#CSc1cc(S(N)(=O)=O)ccc1N | inactive
Cc1cc(C)c(CC(=O)O)c(C)c1 | inactive
CN(C)c1nc2c([nH]1)c(=O)n(C)c(=O)n2C | inactive
COc1cc(/C=N\Nc2ccccc2)ccc1OC(=O)c1ccccc1 | inactive
CCOC(=O)/C(=C/c1ccc(OC)cc1)N(CC)CC | inactive
C[C@]12CC[C@@H]3c4ccc(OCC(=O)O)cc4CC[C@H]3[C@@H]1CCC2=O | inactive
O=C(Nc1cccc(NC(=O)Nc2cc(C(F)(F)F)ccc2Cl)c1)Nc1cc(C(F)(F)F)ccc1Cl | inactive
CN(C)c1ccc2nc3ccc(=N)cc-3sc2c1 | active
Cc1cc2nc(CC(=O)c3ccccc3)c(=O)[nH]c2cc1C | inactive

* * *

System: UO-31 renal
Experiment: NCI-60 one-dose screen, 48 h (100 = growth as untreated, 0 = no growth, -100 = all killed)
Details: 10 µM
This is part of a sample that, as a whole, favours compounds with a hit. Of some 83,000 tested, about 20% had one in any assay.
Reported growth values are given for each entry in this list.

compound | measure_unit | growth
NNc1ccccc1C(=O)O | % | 87.9
CCCCNC1(C#N)CCN(Cc2ccccc2)CC1 | % | 81.1
N#CCc1ccc([N+](=O)[O-])cc1 | % | 72.1
Nc1ccc(N=Nc2ccc(S(=O)(=O)O)cc2)c2ccccc12 | % | 65.2
C=C[Si](OC(C)=O)(OC(C)=O)OC(C)=O | % | 79.3
CCOC(=O)c1coc(C(=O)OCC)c1C(=O)OCC | % | 96.5
CCN(CC)CCCC(C)Nc1ccnc(/C=C/c2ccc(Cl)cc2)c1 (configuration not stated) | % | -48.5

* * *

System: SW-620 colon
Assay: NCI-60 one-dose screen, 48 h
Details: 10 µM
The panel holds about 83,000 compounds, 20% with a hit somewhere; the sample as a whole holds those more often. Activity calls are given as the source filed them. The calls were made as follows: active = growth percent below 10; inactive = the rest. Where a SMILES comes first, the peptide text is derived from it. Bridges are numbered along the chain shown (N, C = ends). [ ]: non-standard residue; d: D form. The star is where a group is joined. ξ: configuration not given here. ξNMePhe(4-NMe2) = CNC(Cc1ccc(N(C)C)cc1)C(=O)O; Picolinoyl(3-OH) = O=C(c1ncccc1O)*; ξPip(4-oxo) = O=C1CCNC(C(=O)O)C1; Phg = N[CH](C(=O)O)c1ccccc1; Abu = CC[CH](N)C(=O)O
Possible outcomes: active, inactive

compound | target_of_assay | category_label
O=C1Cc2ccccc2C(=O)O1 | SW-620 colon | inactive
CN(C)/N=C/c1ccccc1O | SW-620 colon | inactive
NC(=S)NN=C1CCCC1 | SW-620 colon | inactive
Nc1nc(OCc2ccccc2)c2[nH]cnc2n1 | SW-620 colon | inactive
O=C(OCC(O)C1OC(c2ccccc2)OC(COC(=O)c2ccccc2)C1O)c1ccccc1 (stereo not drawn) | SW-620 colon | inactive
CC(=O)OCC1CCCO1 (stereo not drawn) | SW-620 colon | inactive
CCCCCCCCCCCCCC(=O)Oc1ccc[nH]c1=O | SW-620 colon | inactive
CC(C)(C)c1cc(O)c(C(C)(C)C)cc1O | SW-620 colon | inactive
CC(=O)OCC1OC(OC2=C(CC=C(C)C)C(=O)c3ccccc3C2=O)C(OC(C)=O)C(OC(C)=O)C1OC(C)=O (stereo not drawn) | SW-620 colon | inactive
O=C(CS)Nc1ccc2ccccc2c1 | SW-620 colon | inactive
CCS(=O)(=O)c1cc(=O)[nH]c(=O)[nH]1 | SW-620 colon | inactive
O=C1C=C(Nc2ccc([N+](=O)[O-])cc2)c2ccccc2C1=O | SW-620 colon | inactive
COc1cc2nn(-c3ccccc3N)nc2cc1OC | SW-620 colon | inactive
O=c1[nH]c(O)c(/C=C2/C=Nc3ccccc32)[nH]1 | SW-620 colon | inactive
Cc1cc(C(O)(c2ccc(Nc3ccccc3)cc2)c2ccc(Nc3ccc(S(=O)(=O)O)cc3)cc2)ccc1N (stereo not drawn) | SW-620 colon | active
O=[N+]([O-])c1ccc(/C=C/C=C/c2ccccc2)c(Cl)c1 | SW-620 colon | inactive
CCC/C=C(/C(C)=O)C(=O)OCC | SW-620 colon | inactive
CN(C)c1ccc(CNC(C(=O)c2ccccc2)c2ccccc2)cc1 (stereo not drawn) | SW-620 colon | inactive
O=C1C=CC2=C3c4cc(O)c(O)cc4CC3(O)COC2=C1O (stereo not drawn) | SW-620 colon | inactive
CCOC(=O)CCCS(C)(=O)=O | SW-620 colon | inactive
C=CCOC(=O)C(=O)OCC=C | SW-620 colon | inactive
CCO/C=C1\SC(=S)N(c2cccc(C)c2)C1=O | SW-620 colon | inactive
CCCCCC(C)(CC(=O)O)CC(=O)O | SW-620 colon | inactive
Cc1cc2nc(CC(=O)c3cccc([N+](=O)[O-])c3)c(=O)[nH]c2cc1C | SW-620 colon | inactive
O=S(=O)(O)C(Nc1ccccc1)c1ccccc1 (stereo not drawn) | SW-620 colon | inactive
OCCN1CCOCC1 | SW-620 colon | inactive
CN(c1ccccc1)c1ncnc2c1ncn2C | SW-620 colon | inactive
O=C(O)/C=C/c1ccc2c(c1)CCC2 | SW-620 colon | inactive
CC(=O)c1ccc(N=C(C#N)C2=C(O)c3ccccc3C2=O)cc1 | SW-620 colon | inactive
CC(C)(C)n1nc(C2CC2)c(Br)c1NC(=O)c1ccccc1F | SW-620 colon | inactive
CCCC(C)OCC(=O)O (stereo not drawn) | SW-620 colon | inactive
CC[N+](C)(CC)CCO | SW-620 colon | inactive
O=C(O)CSCSCC(=O)O | SW-620 colon | inactive
COc1ccc(/C(C#N)=C2C=C/C(=N/O)c3ccccc3\2)cc1 | SW-620 colon | inactive
OCC1OC(OC2C(O)C(CO)OC2(CO)OC2OC(CO)C(O)C(O)C2O)C(O)C(O)C1O (stereo not drawn) | SW-620 colon | inactive
CC1(C(=O)O)NC(C(=O)O)Cc2c1[nH]c1ccccc21 (stereo not drawn) | SW-620 colon | inactive
COC(=O)c1[nH]c(=O)c(C#N)c(C(=O)OC)c1C(=O)c1ccccc1 | SW-620 colon | inactive
O=C(NCCNC(=O)c1ccc(Cl)cc1Cl)c1ccc(Cl)cc1Cl | SW-620 colon | inactive
Cc1ccc(/C(C#N)=C/c2ccc3c(c2)OCO3)cc1 | SW-620 colon | inactive
O=P(O)(O)OCC(O)CO (stereo not drawn) | SW-620 colon | inactive
COc1cc(-c2ccc(NC(=O)NC3CC3)c(OC)c2)ccc1NC(=O)NC1CC1 | SW-620 colon | inactive
CCCCC1(CC)COC(CCC)OC1 (stereo not drawn) | SW-620 colon | inactive
CC1(O)OC(COc2ccc(Cl)cc2)COC1O (stereo not drawn) | SW-620 colon | inactive
COC(=O)c1cccnc1 | SW-620 colon | inactive
C#Cc1cccc(NC(=O)c2ccc(Cl)cc2Cl)c1 | SW-620 colon | inactive
COCCCNC(=O)c1nnn2c1nc(N)c1cc(Cl)ccc12 | SW-620 colon | inactive
CCc1nc(N)nc(N)c1-c1ccc(Cl)cc1 | SW-620 colon | inactive
CCC1NC(=O)C(NC(=O)c2ncccc2O)C(C)OC(=O)C(c2ccccc2)NC(=O)C2CC(=O)CCN2C(=O)C(Cc2ccc(N(C)C)cc2)N(C)C(=O)C2CCCN2C1=O (stereo not drawn) (tested in a mixture with another compound) ({Picolinoyl(3-OH)}-T[Abu]P[ξNMePhe(4-NMe2)][ξPip(4-oxo)][Phg]; ester 1-C; configuration not given here) | SW-620 colon | inactive
